Value source: patent US10196369B2

# Target System: EBI2 (Homo sapiens, UniProt P32249)
# Sequence (P32249 whole entry): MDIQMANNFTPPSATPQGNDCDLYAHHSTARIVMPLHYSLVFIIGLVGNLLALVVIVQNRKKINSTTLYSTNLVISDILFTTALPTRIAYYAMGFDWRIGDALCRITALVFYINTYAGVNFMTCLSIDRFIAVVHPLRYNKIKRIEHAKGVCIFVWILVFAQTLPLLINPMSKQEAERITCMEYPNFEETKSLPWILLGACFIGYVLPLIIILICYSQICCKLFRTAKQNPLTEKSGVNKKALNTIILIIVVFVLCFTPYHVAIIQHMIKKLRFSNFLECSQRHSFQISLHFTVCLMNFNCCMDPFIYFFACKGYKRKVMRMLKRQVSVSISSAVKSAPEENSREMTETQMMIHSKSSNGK
# Procedure Text: Cell-based luminescent assay of EBI2 modulation (7a,25-OHC stimulated)
# Experimental Context: 7a,25-OHC final assay concentration 80 nM, 60 minute incubation
pIC50: −log10 of the molar value.
Quantity: pIC50

> print(dat)
                           structure.string  quantity  readout.value
1  O=C(/C=C/c1ccc(Br)cc1)N1CCC2(CC1)CN(C(=O)c1ccc(F)cc1C(F)(F)F)C2     pIC50         > 7.00

(Q) Write down pIC50 measured for item O=C(c1cc2cc(Cl)ccc2[nH]1)N1CC2(CCN(Cc3ccc(OC(F)(F)F)cc3)CC2)C1
(A) 6.30 to 7.00

(Q) Write down pIC50 measured for item O=C(C#Cc1ccc(F)cc1)N1CCC2(CC1)CN(C(=O)c1ccc(Br)cc1)C2
(A) 6.30 to 7.00

(Q) Write down pIC50 measured for item O=C(/C=C/c1ccc(Cl)c(Cl)c1)N1CCC2(CC1)CN(C(=O)/C=C/c1ccc(Cl)c(Cl)c1)C2
(A) > 7.00

(Q) Write down pIC50 measured for item O=C(c1cc2cc(Br)ccc2[nH]1)N1CC2(CCN(Cc3ccc(Cl)cc3)CC2)C1
(A) 5.30 to 6.30

(Q) Write down pIC50 measured for item COc1ccc(C(=O)N2CC3(CCN(C(=O)/C=C/c4ccc(Br)cc4)CC3)C2)cc1OC
(A) > 7.00

(Q) Write down pIC50 measured for item O=C(/C=C/c1ccc(Br)cc1)N1CCC2(CC1)CN(C(=O)c1ccc(C(F)(F)F)cc1)C2
(A) > 7.00

----------
Each item that follows carries a reported pIC50.
# Target System: EBI2 (Homo sapiens)
# Procedure Text: Cell-based luminescent assay of EBI2 modulation (7a,25-OHC stimulated)
# Experimental Context: 7a,25-OHC final assay concentration 80 nM, 60 minute incubation
pIC50: −log10 of the molar value.

> print(dat)
                           structure.string  quantity  readout.value
1  O=C(c1ccc(C(F)(F)F)cc1)N1CCC2(CC1)CN(C(=O)c1cc3ccc(Br)cc3[nH]1)C2     pIC50   5.30 to 6.30
2  O=C(C#Cc1ccc2c(c1)OCO2)N1CCC2(CC1)CN(C(=O)c1ccc(Br)cc1)C2     pIC50   5.30 to 6.30

(Q) Write down pIC50 measured for item O=C(c1cc2ccc(Br)cc2[nH]1)N1CC2(CCN(C(=O)c3ccc(F)cc3C(F)(F)F)CC2)C1
(A) 6.30 to 7.00

----------
# Target System: EBI2 (Homo sapiens, UniProt P32249)
# Procedure Text: Cell-based luminescent assay of EBI2 modulation (7a,25-OHC stimulated)
# Experimental Context: 7a,25-OHC final assay concentration 80 nM, 60 minute incubation
Quantity: IC50

Sample answers from the record:
> print(dat)
                           structure.string  quantity  readout.value
1  O=C(/C=C/c1ccc(Br)cc1)N1CC2(CCN(C(=O)c3ccc(-c4nnn[nH]4)cc3)CC2)C1      IC50  100 to 500 nM
2  O=C(C#Cc1ccc(Br)cc1)N1CCC2(CC1)CN(Cc1ccc(F)cc1)C2      IC50       < 100 nM
3  O=C(C#Cc1ccc(Cl)cc1)N1CC2(CCN(C(=O)c3ccc(Cl)cc3)CC2)C1      IC50       < 100 nM

(Q) // output IC50; input O=C(/C=C/c1ccc(Br)cc1)N1CCC2(CC1)CN(Cc1c(Cl)cccc1Cl)C2 ; system EBI2 (Homo sapiens, UniProt P32249)
(A) < 100 nM

(Q) // output IC50; input O=C(/C=C/c1ccc(Br)cc1)N1CC2(CCN(C(=O)c3ccc(C(F)(F)F)cc3)CC2)C1 ; system EBI2 (Homo sapiens, UniProt P32249)
(A) < 100 nM

(Q) // output IC50; input O=C(c1ccc(F)cc1)N1CCC2(CC1)CN(C(=O)c1cc3cc(Br)ccc3[nH]1)C2 ; system EBI2 (Homo sapiens, UniProt P32249)
(A) 100 to 500 nM

(Q) // output IC50; input O=C(C#Cc1ccc(Cl)cc1)N1CCC2(CC1)CN(C(=O)c1ccc(Cl)cc1)C2 ; system EBI2 (Homo sapiens, UniProt P32249)
(A) < 100 nM

(Q) // output IC50; input O=C(c1ccc(C(F)(F)F)c(F)c1)N1CCC2(CC1)CN(C(=O)c1cc3cc(Cl)ccc3[nH]1)C2 ; system EBI2 (Homo sapiens, UniProt P32249)
(A) < 100 nM

(Q) // output IC50; input O=C(c1ccc(C(F)(F)F)c(F)c1)N1CC2(CCN(C(=O)c3cc4cc(Cl)ccc4[nH]3)CC2)C1 ; system EBI2 (Homo sapiens, UniProt P32249)
(A) 100 to 500 nM

(Q) // output IC50; input O=C(c1ccc(Br)cc1)N1CCC2(CC1)CN(C(=O)c1cc3cc(Br)ccc3[nH]1)C2 ; system EBI2 (Homo sapiens, UniProt P32249)
(A) < 100 nM

(Q) // output IC50; input O=C(c1ccc(B(O)O)cc1)N1CCC2(CC1)CN(C(=O)c1cc3cc(Cl)ccc3[nH]1)C2 ; system EBI2 (Homo sapiens, UniProt P32249)
(A) 100 to 500 nM

----------
# Target System: EBI2 (Homo sapiens)
# Procedure Text: Cell-based luminescent assay of EBI2 modulation (7a,25-OHC stimulated)
# Experimental Context: 7a,25-OHC final assay concentration 80 nM, 60 minute incubation
Each item that follows carries a reported IC50.

Sample answers from the record:
> print(dat)
                           structure.string   readout.value
1  O=C(c1ccc(Cl)cc1)N1CCC2(CC1)CN(C(=O)c1cc3ccc(Cl)cc3[nH]1)C2  500 to 5000 nM
2  O=C(C#Cc1ccc(Br)cc1)N1CC2(CCN(C(=O)c3ccc(C(F)(F)F)cc3)CC2)C1   100 to 500 nM

(Q) Write down IC50 measured for item O=C(C#Cc1ccc(Cl)cc1)N1CC2(CCN(C(=O)c3ccc(C(F)(F)F)cc3)CC2)C1
(A) < 100 nM

(Q) Write down IC50 measured for item COc1ccc(C(=O)N2CCC3(CC2)CN(C(=O)C#Cc2ccc(F)cc2)C3)cc1
(A) 100 to 500 nM

(Q) Write down IC50 measured for item O=C(c1cc2ccc(Br)cc2[nH]1)N1CC2(CCN(Cc3ccc(C(F)(F)F)cc3)CC2)C1
(A) 500 to 5000 nM

(Q) Write down IC50 measured for item O=C(/C=C/c1ccc(Br)cc1)N1CCC2(CC1)CN(C(=O)c1ccc(F)cc1)C2
(A) < 100 nM
